Experiment: Ex vivo biodistribution in Daudi xenograft-bearing mice
Details: male, NOD.Cg-Rag1tm1Mom Il2rgtm1Wjl/SzJ (NRG), mouse, stomach, iv, total radioactivity, Stomach uptake, 2 h p.i., mean
Where a SMILES comes first, the peptide text is derived from it. Side-chain parts run from the residue outwards. [ ]: non-standard residue; d: D form. The star is where a group is joined. DOTA = O=C(O)CN1CCN(CC(=O)O)CCN(CC(=O)*)CCN(CC(=O)O)CC1; 2Nal = N[C@@H](Cc1ccc2ccccc2c1)C(=O)O; dNMeOrn = CN[C@H](CCCN)C(=O)O; 4Amb = NCc1ccc(C(=O)O)cc1
Metric Name: tissue uptake at 2 h (%ID/g)
Numeric answer only, unit %ID/g assumed.

# tissue uptake at 2 h lookup, item CN1C(=O)[C@@H](Cc2ccc(O)cc2)NC(=O)CNC(=O)[C@H](Cc2ccc3ccccc3c2)NC(=O)[C@H](CCCNC(=N)N)NC(=O)[C@H]1CCCNC(=O)c1ccc(CNC(=O)CN2CCN(CC(=O)O)CCN(CC(=O)O)CCN(CC(=O)O)CC2)cc1 [[68Ga]Ga-Pentixafor, metal not drawn] (cyclo([dY][dNMeOrn]([4Amb-DOTA])R[2Nal]G)) 0.05

* * *

Test: Ex vivo biodistribution in Daudi xenograft-bearing mice
Conditions: male, NOD.Cg-Rag1tm1Mom Il2rgtm1Wjl/SzJ (NRG), mouse, stomach, iv, total radioactivity, Stomach uptake, 1 h p.i., mean
Where a SMILES comes first, the peptide text is derived from it. Side-chain parts run from the residue outwards. [ ]: non-standard residue; d: D form. The star is where a group is joined. DOTA = O=C(O)CN1CCN(CC(=O)O)CCN(CC(=O)*)CCN(CC(=O)O)CC1; 2Nal = N[C@@H](Cc1ccc2ccccc2c1)C(=O)O; dNMeOrn = CN[C@H](CCCN)C(=O)O; 4Amb = NCc1ccc(C(=O)O)cc1
Metric Name: tissue uptake at 1 h (%ID/g)
Enter your answer as a number in %ID/g; do not include the unit.

Fill in: tissue uptake at 1 h of CN1C(=O)[C@@H](Cc2ccc(O)cc2)NC(=O)CNC(=O)[C@H](Cc2ccc3ccccc3c2)NC(=O)[C@H](CCCNC(=N)N)NC(=O)[C@H]1CCCNC(=O)c1ccc(CNC(=O)CN2CCN(CC(=O)O)CCN(CC(=O)O)CCN(CC(=O)O)CC2)cc1 [[68Ga]Ga-Pentixafor, metal not drawn] (cyclo([dY][dNMeOrn]([4Amb-DOTA])R[2Nal]G)) is ___ 0.13

* * *

Experiment: Ex vivo biodistribution in Daudi xenograft-bearing mice
Conditions: male, NOD.Cg-Rag1tm1Mom Il2rgtm1Wjl/SzJ (NRG), mouse, spleen, iv, total radioactivity, Spleen uptake, 1 h p.i., mean
Where a SMILES comes first, the peptide text is derived from it. Side-chain parts run from the residue outwards. [ ]: non-standard residue; d: D form. The star is where a group is joined. DOTA = O=C(O)CN1CCN(CC(=O)O)CCN(CC(=O)*)CCN(CC(=O)O)CC1; 2Nal = N[C@@H](Cc1ccc2ccccc2c1)C(=O)O; dNMeOrn = CN[C@H](CCCN)C(=O)O; 4Amb = NCc1ccc(C(=O)O)cc1
Metric Name: tissue uptake at 1 h (%ID/g)
Number in %ID/g, nothing else.

Which tissue uptake at 1 h is reported for this molecule? CN1C(=O)[C@@H](Cc2ccc(O)cc2)NC(=O)CNC(=O)[C@H](Cc2ccc3ccccc3c2)NC(=O)[C@H](CCCNC(=N)N)NC(=O)[C@H]1CCCNC(=O)c1ccc(CNC(=O)CN2CCN(CC(=O)O)CCN(CC(=O)O)CCN(CC(=O)O)CC2)cc1 [[68Ga]Ga-Pentixafor, metal not drawn] (cyclo([dY][dNMeOrn]([4Amb-DOTA])R[2Nal]G)) 0.63
